Measured IC50 values are reported for all entries that follow.
Test system: CAL-72;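 also: cell viability assay measuring inhibition of proliferation in the CAL-72 cell line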
assay-text: cells
Assay type: functional, cell-based, Homo sapiens
test-conditions: Homo sapiens, CAL-72
Description: SANGER: Inhibition of human CAL-72 cell growth in a cell viability assay.

Here are 2 compounds together with their reported answers.
# input Consider the compound O=C(NOCC1CC1)c1ccc(F)c(F)c1Nc1ccc(I)cc1Cl . State its measured IC50.
# output > 10 µM

# input Give the value of IC50 reported for the following: O=C1N=C(NCc2cccs2)S/C1=C\c1ccc2ncccc2c1
# output > 5 µM

Kindly consider the entry below.
# input Query IC50 for CC(=O)O[C@@H]1[C@@H](OC(C)=O)[C@@H](O)[C@H](Oc2c(-c3ccc(O)cc3)oc3cc(O)cc(O)c3c2=O)O[C@H]1C
# output 3.89 µM

###

System: NCI-H520;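 also: growth inhibition of NCI-H520 cells, measured by a cell viability assay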
assay-text: cells
Type: functional, cell-based, Homo sapiens
test-conditions: Homo sapiens, NCI-H520
Description: SANGER: Inhibition of human NCI-H520 cell growth in a cell viability assay.
IC50 listing for selected compounds.

Some compounds with recorded IC50:
# input Answer with the recorded IC50 of Cc1cc([C@@H](C)Nc2ccccc2C(=O)O)c2nc(N3CCOCC3)cc(=O)n2c1 only.
# output 4.21 µM

# input Identify IC50 associated with the compound Cc1cnc(-c2cnc(NCCNc3ccc(C#N)cn3)nc2-c2ccc(Cl)cc2Cl)[nH]1
# output > 2.56 µM

# input # return recorded IC50 for input COC(=O)CNC(=O)C(=O)OC
# output 398 µM

Next:
# input Specify reported IC50 for the compound shown: Nc1ccn([C@@H]2O[C@H](CO)[C@@H](O)[C@@H]2O)c(=O)n1
# output > 2 µM

# input Name the recorded IC50 of the item O=C1N=C(NCc2cccs2)S/C1=C\c1ccc2ncccc2c1 in your answer.
# output > 5 µM

# input Hello, please tell me recorded IC50 for this one: O=c1cc(-c2cccc3c2Sc2ccccc2S3)oc(N2CCOCC2)c1
# output > 10 µM

###

Tested on: SW 1116;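 also: growth inhibition of SW1116 cells, read out with a cell viability assay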
assay-text: cells
Format: functional, cell-based
test-conditions: Homo sapiens
Description: SANGER: Inhibition of human SW1116 cell growth in a cell viability assay.
pIC50: −log10 of the molar value.
experimental-readout: pIC50

# input Find pIC50 for COc1ccc(C2=N[C@@H](c3ccc(Cl)cc3)[C@@H](c3ccc(Cl)cc3)N2C(=O)N2CCNC(=O)C2)c(OC(C)C)c1 [NUTLIN-3] on SW 1116 and write it down.
# output < 5.10

# input Would you please give the reported pIC50 of O=C(NOCC1CC1)c1ccc(F)c(F)c1Nc1ccc(I)cc1Cl [CI-1040] with SW 1116?
# output 5.81

# input Answer briefly: pIC50 recorded on SW 1116 for CCOc1nc(NC(=O)Cc2cc(OC)ccc2OC)cc(N)c1C#N
# output < 5.00

Others:
# input # lookup: SW 1116 pIC50, key = Cn1cc(C2=C(c3ccc(Cl)cc3Cl)C(=O)NC2=O)c2ccccc21 [SB-216763]
# output < 5.00

# input Look up and report pIC50, with SW 1116 as system, for COc1ccc(-c2ccc3c(N4CCOC[C@@H]4C)nc(N4CCOC[C@@H]4C)nc3n2)cc1CO [AZD-8055]
# output < 5.70

###

Test system: HuO9
assay-text: cells
Type: functional, cell-based, Homo sapiens
test-conditions: Homo sapiens, HuO9
Description: SANGER: Inhibition of human HuO9 cell growth in a cell viability assay.
Entries and their measured IC50 follow.

# count of solved cases: 3
# input Given the compound CC(=O)O[C@@]12CO[C@@H]1C[C@H](O)[C@@]1(C)C(=O)[C@H](O)C3=C(C)[C@@H](OC(=O)[C@H](O)[C@@H](NC(=O)OC(C)(C)C)c4ccccc4)C[C@@](O)([C@@H](OC(=O)c4ccccc4)[C@H]21)C3(C)C , write its reported IC50.
# output 3.46 nM

# input Tell me measured IC50 for COc1cc(F)c(F)c(Nc2ccc(I)cc2F)c1NS(=O)(=O)C1(CC(O)CO)CC1 (stereo unspecified) please.
# output > 5000 nM

# input In one line, give reported IC50 of the entry CN(Cc1cnc2nc(N)nc(N)c2n1)c1ccc(C(=O)N[C@@H](CCC(=O)O)C(=O)O)cc1 [METHOTREXATE] .
# output > 200 nM

Continuing:
# input Supply reported IC50 belonging to this compound: CCC1=C[C@@H]2CN(C1)Cc1c([nH]c3ccccc13)[C@@](C(=O)OC)(c1cc3c(cc1OC)N(C)[C@H]1[C@@](O)(C(=O)OC)[C@H](OC(C)=O)[C@]4(CC)C=CCN5CC[C@]31[C@@H]54)C2
# output 7.09 nM

# input Input Cc1cnc(-c2cnc(NCCNc3ccc(C#N)cn3)nc2-c2ccc(Cl)cc2Cl)[nH]1 , output reported IC50.
# output > 2560 nM

# input Let me know recorded IC50 for O=C(c1cc(Cc2n[nH]c(=O)c3ccccc23)ccc1F)N1CCN(C(=O)C2CC2)CC1 , thanks.
# output > 5000 nM

###

System: RT-4
assay-text: SANGER: Inhibition of human RT4 cell growth in a cell viability assay.
Format: functional, cell-based
test-conditions: Homo sapiens, RT-4
pIC50: −log10 of the molar value.
Reported pIC50 values for the following compounds.

Example entries and their recorded answers appear below.
# input Read off the recorded pIC50 for C=CCc1cccc(/C=N/NC(=O)CN2CCN(Cc3ccccc3)CC2)c1O [PAC-1]
# output < 5.59

# input Tell me its pIC50 given Cc1cnc(-c2cnc(NCCNc3ccc(C#N)cn3)nc2-c2ccc(Cl)cc2Cl)[nH]1 [LADUVIGLUSIB] as the entry.
# output < 5.59

More entries:
# input Tell me pIC50 reported for COC(=O)CNC(=O)C(=O)OC
# output 3.19

# input Indicate the recorded pIC50 value for this compound: COc1cc([C@@H]2c3cc4c(cc3[C@@H](O[C@@H]3O[C@@H]5CO[C@@H](C)O[C@H]5[C@H](O)[C@H]3O)[C@H]3COC(=O)[C@H]23)OCO4)cc(OC)c1O [ETOPOSIDE]
# output < 4.80

# input Answer with reported pIC50 of C[C@]1(O)C[C@@H](c2nc(-c3ccc4ccc(-c5ccccc5)nc4c3)c3c(N)nccn32)C1 [LINSITINIB]
# output < 5.59

###

Test system: MEL-HO
assay-text: cells
Format: functional, cell-based, Homo sapiens
test-conditions: Homo sapiens, MEL-HO
Description: SANGER: Inhibition of human MEL-HO cell growth in a cell viability assay.
experimental-readout: IC50 (nM)
Hi! Could you send only the number? It should be in nM, unit omitted.

# input Using the record for COc1cc(F)c(F)c(Nc2ccc(I)cc2F)c1NS(=O)(=O)C1(CC(O)CO)CC1 (stereo not given) , state its measured IC50.
# output 39.4

Next compound, IC50 to be filled in.
# input Identify measured IC50 corresponding to C=CCc1cccc(/C=N/NC(=O)CN2CCN(Cc3ccccc3)CC2)c1O [PAC-1]
# output 1770

###

System: HT-3;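 also: growth inhibition measured with a cell viability readout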
assay-text: cells
Assay type: functional, cell-based, Homo sapiens
test-conditions: Homo sapiens, HT-3
Description: SANGER: Inhibition of human HT-3 cell growth in a cell viability assay.
pIC50: −log10 of the molar value.
experimental-readout: pIC50

# input Determine its reported pIC50: CN(C)C/C=C/C(=O)Nc1cc2c(Nc3ccc(F)c(Cl)c3)ncnc2cc1O[C@H]1CCOC1
# output < 6.30

For the next question, use this compound.
# input Give recorded pIC50. C[C@]1(O)C[C@@H](c2nc(-c3ccc4ccc(-c5ccccc5)nc4c3)c3c(N)nccn32)C1
# output < 5.59

###

Test system: DMS-53;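 also: cell viability assay measuring growth inhibition of human DMS-53 cells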
assay-text: cells
Type: functional, cell-based, Homo sapiens
test-conditions: Homo sapiens, DMS-53
Description: SANGER: Inhibition of human DMS-53 cell growth in a cell viability assay.
experimental-readout: IC50

# input Check the records and state IC50 for CCC1=C[C@@H]2CN(C1)Cc1c([nH]c3ccccc13)[C@@](C(=O)OC)(c1cc3c(cc1OC)N(C)[C@H]1[C@@](O)(C(=O)OC)[C@H](OC(C)=O)[C@]4(CC)C=CCN5CC[C@]31[C@@H]54)C2
# output > 0.064 µM

# input Supply recorded IC50 for COc1cc([C@@H]2c3cc4c(cc3[C@@H](O[C@@H]3O[C@@H]5CO[C@@H](C)O[C@H]5[C@H](O)[C@H]3O)[C@H]3COC(=O)[C@H]23)OCO4)cc(OC)c1O [ETOPOSIDE] here.
# output > 16 µM

Next:
# input Kindly indicate its recorded IC50. Item: Cn1cncc1[C@@](N)(c1ccc(Cl)cc1)c1ccc2c(c1)c(-c1cccc(Cl)c1)cc(=O)n2C
# output > 16 µM

###

System: HSC-2;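 also: growth inhibition of human HSC-2 cells, read out by a cell viability assay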
assay-text: cells
Format: functional, cell-based, Homo sapiens
test-conditions: Homo sapiens, HSC-2
Description: SANGER: Inhibition of human HSC-2 cell growth in a cell viability assay.
experimental-readout: IC50

Previously resolved entries follow.
# input Please indicate IC50 recorded for CCC1=C[C@@H]2CN(C1)Cc1c([nH]c3ccccc13)[C@@](C(=O)OC)(c1cc3c(cc1OC)N(C)[C@H]1[C@@](O)(C(=O)OC)[C@H](OC(C)=O)[C@]4(CC)C=CCN5CC[C@]31[C@@H]54)C2
# output 0.00225 µM

# input Answer with the recorded IC50 of CN(c1ncccc1CNc1nc(Nc2ccc3c(c2)CC(=O)N3)ncc1C(F)(F)F)S(C)(=O)=O only.
# output 1.54 µM

# input Entry O=c1cc(-c2cccc3c2Sc2ccccc2S3)oc(N2CCOCC2)c1 needs its IC50 filled in; supply it.
# output > 10 µM

Others:
# input State its IC50: CCOc1nc(NC(=O)Cc2cc(OC)ccc2OC)cc(N)c1C#N
# output > 10 µM

# input For the compound Cn1cncc1[C@@](N)(c1ccc(Cl)cc1)c1ccc2c(c1)c(-c1cccc(Cl)c1)cc(=O)n2C , report IC50.
# output 5.2 µM
